The following compounds are listed with their measured IC50 values.
Tested on: NIH3T3
Assay Remarks: Cytotoxicity against mouse 3T3 cells after 48 hrs by MTT assay
Format: cell-based
Experimental Context: NIH3T3, 48 h
Counter-ions that a name gives are not always drawn.

{"Compound": "Cn1cc2c3cc(Br)ccc3nc-2c2cc(Cl)ccc21", "IC50, nM": 9000}
{"Compound": "CCN(CC)CCCC(C)Nc1ccnc2cc(Cl)ccc12 (stereo not given)", "IC50, nM": 72000}
{"Compound": "Cn1cc2c3cc(Br)ccc3nc-2c2ccc(Cl)cc21", "IC50, nM": 2640}
{"Compound": "Cn1cc2c3cc(Cl)ccc3nc-2c2ccccc21", "IC50, nM": 2100}
{"Compound": "Cn1cc2c3ccccc3nc-2c2ccccc21 [ISOCRYPTOLEPINE HYDROCHLORIDE]", "IC50, nM": 2190}
{"Compound": "Cc1ccc2c3cn(C)c4ccccc4c-3nc2c1", "IC50, nM": 2070}
{"Compound": "Cc1cc2nc3c4ccccc4n(C)cc-3c2cc1Br", "IC50, nM": 2500}
{"Compound": "Cn1cc2c3cc(Br)ccc3nc-2c2cc(Br)ccc21", "IC50, nM": 2580}
{"Compound": "Cn1cc2c3ccccc3nc-2c2ccc(Cl)cc21", "IC50, nM": 2260}
{"Compound": "Cn1cc2c3cc(Br)ccc3nc-2c2ccccc21", "IC50, nM": 1970}
